# measurement_target: c-Met (Homo sapiens, UniProt P08581)
# Sequence (P08581 1058-1365): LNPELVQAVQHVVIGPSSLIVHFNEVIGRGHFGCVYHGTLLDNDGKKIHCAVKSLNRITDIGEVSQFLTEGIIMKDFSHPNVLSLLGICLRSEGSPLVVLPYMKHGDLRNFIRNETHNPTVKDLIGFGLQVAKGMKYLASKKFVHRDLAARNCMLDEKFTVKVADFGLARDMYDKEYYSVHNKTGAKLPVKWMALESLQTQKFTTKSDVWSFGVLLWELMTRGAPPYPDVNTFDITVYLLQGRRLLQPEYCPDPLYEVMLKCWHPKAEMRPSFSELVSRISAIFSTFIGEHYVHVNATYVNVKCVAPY
Please provide measured pKi for the entries that follow.
Numbers only, as −log10 of the molar value.

Illustrative cases are given below, each with its answer.
{"columns": ["compound", "test_value"],
 "data": [
  ["Cc1c(C(=O)Nc2ccc(-c3cccc4[nH]nc(N)c34)cc2)c(=O)n(-c2ccccc2)n1CC(C)(C)O [Example 8]", 6.60],
  ["Cc1c(C(=O)Nc2ccc(-c3cccc4c(N)nccc34)c(F)c2)c(=O)n(-c2ccccc2)n1C [Example 2]", 7.55]
]}

Give measured pKi for every item shown.
1. Cc1c(C(=O)Nc2ccc(-c3cccc4c(N)nccc34)c(F)c2)c(=O)n(-c2ccccc2)n1CC(C)(C)O [Example 3]
2. Cc1c(C(=O)Nc2ccc(-c3cccc4c(NCCCN5CCOCC5)nccc34)cc2)c(=O)n(-c2ccccc2)n1CC(C)(C)O [Example 13]
3. Cc1c(C(=O)Nc2ccc(-c3cccc4[nH]nc(N)c34)c(F)c2)c(=O)n(-c2ccccc2)n1C [Example 1]

1. 7.25
2. 5.48
3. 7.68
